# Test system: Septoria tritici
# test-description: Activity against Septoria tritici on wheat (seedlings treated, detached leaf portions on agar inoculated)
# Format: in vivo
# condition: wheat seedlings in vermiculite, 125 g a.i./100 kg; leaf portions on agar inoculated 7 days after treatment; 18° C., 18 days incubation; control 100

sample-smiles	assay-system	unit-annotation	Infected leaf area
Cn1cc(C(=O)Nc2ccccc2-c2cc(F)cc(F)c2)c(C(F)(F)F)n1	Septoria tritici	%	0
Cn1cc(C(=O)Nc2ccccc2-c2cc(F)c(F)c(F)c2)c(C(F)F)n1	Septoria tritici	%	7
Cn1cc(C(=O)Nc2ccccc2-c2ccccc2Cl)c(C(F)F)n1	Septoria tritici	%	7
Cc1cc(-c2ccccc2NC(=O)c2cn(C)nc2C(F)(F)F)c(F)cc1Cl	Septoria tritici	%	3
Cn1cc(C(=O)Nc2ccccc2-c2ccc(SC(F)(F)F)cc2)c(C(F)F)n1	Septoria tritici	%	0
Cn1cc(C(=O)Nc2ccc(F)cc2-c2ccc(Cl)c(Cl)c2)c(C(F)F)n1	Septoria tritici	%	3
Cn1cc(C(=O)Nc2ccccc2-c2cc(Cl)ccc2Cl)c(C(F)(F)F)n1	Septoria tritici	%	3
Cn1cc(C(=O)Nc2ccccc2-c2cc(F)c(F)c(F)c2)c(C(F)(F)F)n1	Septoria tritici	%	0

----------
# Test system: Puccinia recondita
# test-description: Activity against Puccinia recondita on wheat (solution pipetted to seedlings in vermiculite)
# Format: in vivo
# condition: 250 g a.i./100 kg, inoculated 7 days after treatment, 7 days incubation, control 80
endpoint: Infected leaf area

compound	assay-system	reported-value
Cn1cc(C(=O)Nc2ccccc2-c2cc(F)cc(Cl)c2)c(C(F)(F)F)n1	Puccinia recondita	0%
Cc1nn(C)c(Cl)c1C(=O)Nc1ccccc1-c1ccc(C(F)(F)F)cc1	Puccinia recondita	6%
Cn1cc(C(=O)Nc2ccccc2-c2cc(F)c(F)c(F)c2)c(C(F)F)n1	Puccinia recondita	1%
Cn1cc(C(=O)Nc2ccccc2-c2cc(F)cc(Cl)c2)c(C(F)F)n1	Puccinia recondita	0%
Cn1cc(C(=O)Nc2ccccc2-c2cc(F)c(F)c(F)c2)c(C(F)Cl)n1 (centres unmarked)	Puccinia recondita	0%

Data origin, for the record: patent US20090264289A1
